Experiment: Partition coefficient (logP)
Format: physicochemical
Settings: octanol/water
Overview of reported logP across a group of compounds:
measurement_name: logP

INSERT INTO measurements (test_smiles, assay_value) VALUES
  ('N#Cc1c(Oc2ccccc2)sc(C(=O)c2ccccc2)c1N', 4.75),
  ('Cc1cccc(Oc2sc(C(N)=O)c(N)c2C#N)c1', 2.69),
  ('COC(=O)c1sc(Oc2cccc(C)c2)c(C(N)=O)c1N', 3.61),
  ('Cc1cccc(Oc2sc(C#N)c(N)c2C#N)c1', 3.04),
  ('COC(=O)c1sc(Oc2ccccc2)c(C(N)=O)c1N', 3.11);
